- System: Wolbachia pipientis
- test_protocol: Anti-Wolbachia Cell-Based Screen
- Format: functional
- Design: scale not given: in the data most compounds retested in dose-response had high values
- settings: 5 µM
Out of some 48,000 compounds screened, about 13,000 (27%) showed an effect of 50% or more. The list shows a part of the results.
endpoint_name: Percent Effect (%)

compound="Cl.NCC(=O)N1CCC(c2ccnc(Nc3cc(C(F)(F)F)ccn3)n2)C1 (stereo not given)" assay_system="Wolbachia pipientis" display_unit=% assay_result=119.4
compound="CCc1nc(C2CCCN(C(=O)c3ccc4c(c3)nnn4C)C2)no1 (stereo not given)" assay_system="Wolbachia pipientis" display_unit=% assay_result=5.742
compound=O=C(CCc1ccccc1)N1C[C@@H]2CN(Cc3ccoc3)CCO[C@@H]2C1.O=C(O)C(F)(F)F assay_system="Wolbachia pipientis" display_unit=% assay_result=22.25
compound="CC(C)COCC1CN(Cc2ccco2)Cc2ncn(C)c21 (stereo not given)" assay_system="Wolbachia pipientis" display_unit=% assay_result=120.7
compound=COCCN(Cc1ccsc1)C(=O)c1c(C)cc(C)[nH]c1=O assay_system="Wolbachia pipientis" display_unit=% assay_result=-10.51
compound=CCn1nc(C)c2nnn(CC(=O)Nc3cccc(Cl)c3)c(=O)c21 assay_system="Wolbachia pipientis" display_unit=% assay_result=-0.8024
compound="CN1CC(C(=O)NC(C)(C)CNC(=O)OC(C)(C)C)CC1=O (stereo not given)" assay_system="Wolbachia pipientis" display_unit=% assay_result=-3.275
compound=CCN(CC(=O)NC)S(=O)(=O)N1CCCCC1 assay_system="Wolbachia pipientis" display_unit=% assay_result=6.131
compound="Cc1cccnc1CN(C)C(C(=O)O)c1ccc(C(C)(C)C#N)cc1 (stereo not given)" assay_system="Wolbachia pipientis" display_unit=% assay_result=-18.01
compound="CN1CC(c2ccccc2)CC12CCN(C(=O)c1cncc(Cl)c1)CC2 (stereo not given)" assay_system="Wolbachia pipientis" display_unit=% assay_result=1.146
compound="CC(C)N(C)S(=O)(=O)N(Cc1cccs1)CC1CCCO1 (stereo not given)" assay_system="Wolbachia pipientis" display_unit=% assay_result=1.212
compound=CC(=O)N1CCN(C(=O)CNc2ccc3ncsc3c2)CC1 assay_system="Wolbachia pipientis" display_unit=% assay_result=-9.479
compound=Cc1ccsc1C(=O)N1CCC(Nc2cccnc2)CC1 assay_system="Wolbachia pipientis" display_unit=% assay_result=82.28
compound="Cc1ccc(CN(C)C(=O)CN2CCCC2c2cnn(C)c2)o1 (stereo not given)" assay_system="Wolbachia pipientis" display_unit=% assay_result=-1.976
compound="CCc1nc(C2CCCN(C(=O)c3cccc4c3ccn4C)C2)no1 (stereo not given)" assay_system="Wolbachia pipientis" display_unit=% assay_result=-5.539
